System: TK-10 renal
Method: NCI-60 one-dose screen, 48 h (100 = growth as untreated, 0 = no growth, -100 = all killed)
Stated conditions: 10 µM unless noted
This is part of a sample that, as a whole, favours compounds with a hit. Of some 83,000 tested, about 20% had one in any assay.
Measure: growth (%)
Quick reminder: number only, in %, skip the unit.

Consider the compound `Cc1ccc(NC(=O)c2sc3nc4c(cc3c2N)C(=O)CCC4)cc1C` and give its recorded growth.
59.9

Consider the compound `O=C(NCc1cccc(C(F)(F)F)c1)[C@H](CCC(=O)N1CCN(C2CCCCC2)CC1)N1C(=O)[C@@H](N2C(=O)OC[C@@H]2c2ccccc2)[C@H]1/C(Cl)=C/c1ccccc1` and give its recorded growth.
40.8

Consider the compound `O=C(Nc1cccc2[nH]c(C(F)(F)F)nc12)c1ccc(Br)cc1F` and give its recorded growth.
52.8

Consider the compound `O=C(O)c1cn(C2CC2)c2cc(N3CCN(Cc4nc5c(cnn5-c5ccc([N+](=O)[O-])cc5)c(=O)[nH]4)CC3)c(F)cc2c1=O` and give its recorded growth.
122

Consider the compound `CCN(CC)CC(C)(C)C(=O)/C=C/c1ccccc1` and give its recorded growth.
91.5

Consider the compound COc1ccc(N(Cc2cc(OC)c(OC)c(OC)c2)C2OC(=O)c3ccccc32)cc1 (stereo not given) and give its recorded growth.
53.5

Consider the compound `COc1cnc2c(c1)C(=O)c1c-2n(CCCBr)c(=O)c2cc([N+](=O)[O-])ccc12` and give its recorded growth.
36.5

Consider the compound `Cc1cc(Nc2nc(-c3cccnc3)nc3ccccc23)n[nH]1` and give its recorded growth.
59.8

Consider the compound CCN(CC)C12CCCCC1(C)C(C#N)(C#N)C(C#N)=C(N)O2 (stereo not given) and give its recorded growth.
93.2

Consider the compound Cc1cc2c(cc1C)NC1=C(N2)OC(c2c3ccccc3cc3ccccc23)C1=O (stereo not given) and give its recorded growth.
107

Consider the compound CCN(CC)CC(O)c1cc(-c2ccc(Cl)cc2)nc2c(C)c(Cl)ccc12 (stereo not given) and give its recorded growth.
-92.5

Consider the compound `CCCCCCCCOC(=O)CC[C@@H](C)[C@H]1CC[C@H]2[C@@H]3[C@H](OC(=O)CCN)C[C@@H]4C[C@H](OC(=O)CCN)CC[C@]4(C)[C@H]3C[C@H](OC(=O)CCN)[C@]12C` and give its recorded growth.
136

Consider the compound `CC(=O)Oc1cc2cnc3c4cc(OC(C)=O)c(OC(C)=O)cc4ccc3c2cc1OC(C)=O` and give its recorded growth.
21.8

Consider the compound `CNC(=O)c1cc(Oc2ccc3nc(NC(=O)Nc4ccc(CN5CCOCC5)c(C(F)(F)F)c4)sc3c2)ccn1` and give its recorded growth.
43.9

Consider the compound `Cc1cc(N/N=C/c2nc(-c3ccc(Cl)cc3)oc2C)c2cc(Cl)ccc2n1` and give its recorded growth.
30.5

Consider the compound Cc1ccc(C2CC3c4ccccc4C2C2CCCCN32)cc1 (stereo not given) and give its recorded growth.
97.1

Consider the compound `O=[N+]([O-])c1cccc(-c2nc3sccn3c2-c2ccnc(NCCNS(=O)(=O)c3ccc(C(F)(F)F)cc3)n2)c1` and give its recorded growth.
57.9

Consider the compound `O=C1Nc2c(ccc(Cl)c2Cl)/C1=C/c1cc(Br)c(O)c(Br)c1` and give its recorded growth.
96.7

Consider the compound CCOC(=O)C12CCCC1=CC(=O)CC2 (stereo not given) and give its recorded growth.
128

Consider the compound `Oc1ccccc1N=Cc1c(O)ccc2ccccc12` and give its recorded growth.
119

Consider the compound `COc1ccc(-c2cc(-c3cccnc3)nc3sc4c(=O)n(-c5ccc(C)cc5)cnc4c23)cc1OC` and give its recorded growth.
111

Consider the compound COc1ccc(C2CC(=O)Nc3c2c(C)nn3-c2nc3ccccc3[nH]2)cc1 (stereo not given) and give its recorded growth.
116

Consider the compound `CCN(C(=O)CN1CCN(c2cc3c(cc2F)c(=O)c(C(=O)O)cn3CC)CC1)c1nc(-c2ccccc2)cs1` and give its recorded growth.
14.6

Consider the compound Cc1nn(-c2nc3ccccc3[nH]2)c2c1C(c1ccc3c(c1)OCO3)CC(=O)N2 (stereo not given) and give its recorded growth.
69.4

Consider the compound `COc1ccc2nc3cc(Cl)ccc3c(N3CCN(c4ccnc(N5CCOCC5)n4)CC3)c2c1` and give its recorded growth.
63.7

Consider the compound `CCCCN(CC)CCCCCCCCCCN1CCCc2cc(OC)ccc21` and give its recorded growth.
87.8

Consider the compound `NC(=S)N/N=C/c1ccc(OCc2ccccc2)cc1` and give its recorded growth.
60.2

Consider the compound `NC(=S)N/N=C/c1cc(-c2cccc(N)c2)ccn1` and give its recorded growth.
46.6

Consider the compound `c1ccc(CSc2ncnc3nc[nH]c23)nc1` and give its recorded growth.
101

Consider the compound `CC/C(Cc1ccccc1)=C(\c1ccc(OCCN2CCCC2)cc1)c1ccc(OC(C)=O)cc1` and give its recorded growth.
88.7

Consider the compound `c1ccc2sc(SCCCn3ccnc3)nc2c1` and give its recorded growth.
84.2

Consider the compound `COc1cc2nc3cc([N+](=O)[O-])ccc3c(NCCCNCC(C)(C)O)c2cc1OC` and give its recorded growth.
-31.7

Consider the compound `COc1ccc(/C=C2\N=C3SC=C(N)N3C2=O)cc1` and give its recorded growth.
19.5

Consider the compound `CCOC(=O)c1c2c(n3ccc(NC(=O)CCN4CCCCC4)cc13)C(=O)c1ncccc1C2=O` and give its recorded growth.
54

Consider the compound `COc1ccc(C(=O)c2sc3nc(-c4ccccc4OC)ccc3c2N)cc1OC` and give its recorded growth.
79.7

Consider the compound `CCCCCCNC(=O)Oc1ccc(/C(=C(\C)c2ccccc2)c2ccc(OCCN(CC)CC)cc2)cc1` and give its recorded growth.
76.1

Consider the compound `CCCCCC(=O)N(CCCC)CCCC` and give its recorded growth.
109

Consider the compound `Cn1c2c(Cl)c(Cl)ccc2c2ccn3c(=O)c4ccccc4nc3c21` and give its recorded growth.
162

Consider the compound `COc1cc(/C=N/N(C)C)ccc1O` and give its recorded growth.
94.5

Consider the compound CN1CCCCC1CCN1c2ccccc2Sc2ccc(Cl)cc21 (stereo not given) and give its recorded growth.
69.3
